- experiment: Encapsulation efficiency of RNA (QUANT-IT RIBOGREEN RNA assay)
- Format: physicochemical
- condition.summary: Table 1A
Exercise: for every item that follows, state its recorded EE (%).
Supply the numeric figure in %, leaving out any unit text.

Asked: EE (%) lookup needed for CCCCCCCCCOC(=O)CCCCCCCN(CCCCCCCC(=O)OC(CCCCCCCC)CCCCCCCC)CCCN/C(=N/C#N)N(C)C , thanks.
Given back: 91.4

Asked: Name the recorded EE (%) for CCCCCCCCCOC(=O)CCCCCCCN(CCCCCCCC(=O)OC(CCCCCCCC)CCCCCCCC)CCCn1ccc(=O)[nH]c1=O .
Given back: 98.8

Asked: EE (%) for CCCCCCCCCOC(=O)CCCN(CCO)CCCCCCCC(=O)OC(CCCCCCCC)CCCCCCCC ?
Given back: 97.43

Asked: Param item = CCCCCCCCCC(=O)OCCCCCCCN(CCO)CCCCCCCOC(=O)C(CCCCCCCC)CCCCCCCC ; retrieve measured EE (%).
Given back: 87.86

Asked: Quick check: EE (%) of CCCCCCCCCOC(=O)CCCCCCCN(CCCCCCCC(=O)OC(CCCCCCCC)CCCCCCCC)C(C)CO (centres unmarked) ?
Given back: 96.04

Asked: Which value of EE (%) has been reported for CCCCCCCCC(C)OC(=O)CCCCCCCN(CCO)CCCCCCCC(=O)N(CCCCCCCC)CCCCCCCC (centres unmarked) in the records?
Given back: 97

Asked: Request the reported EE (%) associated with CCCCCC/C=C\COC(=O)CCCCCCCN(CCO)CCCCCCCC(=O)OC/C=C\CCCCCC
Given back: 78.2

Asked: Quick one: EE (%) for CCCCCCCCC(CC)OC(=O)CCCCCCCN(CCO)CCCCCCCC(=O)OC(CCCCCCCC)CCCCCCCC (centres unmarked) ?
Given back: 89.52

Asked: Return reported EE (%); argument: CCCCCCCCCOC(=O)CCCCCCCN(CCO)CCCCCCCC(=O)Oc1ccc(CCCCC)c(CCCCC)c1
Given back: 98

Asked: Query (compound): CCCCCCCCCOC(=O)CCCN(C)CCCCCCCC(=O)OC(CCCCCCCC)CCCCCCCC ; field requested: EE (%)
Given back: 96.8

Asked: Please give the measured EE (%) for this compound: CCCCCCCCC(CCCCCCCC)OC(=O)CCCCCCCN(CCO)CCCCCCCC(=O)OC(C)(C)C
Given back: 37.36

Asked: For the compound CCCCC/C=C\C/C=C\CCCCCCCCN(CCO)CCCCCCCC(=O)OC(CCCCCCCC)CCCCCCCC , what EE (%) is on record?
Given back: 97.60

Asked: # input compound: CCCCCCCCCC(=O)OCCCCCCCN(CCO)CCCCCCCC(=O)OC(CCCCCCCC)CCCCCCCC ; wanted: its EE (%)
Given back: 79.04

Asked: Reported EE (%) for CCCCCCCCCOC(=O)CCCCCCCN(CCCCCCCC(=O)OC(CCCCCCCC)CCCCCCCC)C[C@H](C)O : what is it?
Given back: 92.44

Asked: Need EE (%), item CCCCCCCCCOC(=O)CCCCCCCN(CCO)CCCCCCCC(=O)OC(CCC)CCCCCCCC (centres unmarked)
Given back: 92.52

Asked: For the compound shown here, CCCCCCCCCOC(=O)CCCCCCCN(CCO)CCCCCCCOP(=O)(OCCCCCCCC)OCCCCCCCC , give the reported EE (%).
Given back: 75.44

Asked: Returns the measured EE (%) for the input compound. Input: CCCCCCCCC(CCCCCCCC)OC(=O)CCCCCCCN(CCO)CCCCCCCC(=O)OC(CCCCCCCC)C1CC1 (centres unmarked)
Given back: 98.2

Asked: Consider the compound CCCCCCCCCOC(=O)CCCCCCCN(CCCCCCCC(=O)OC(CCCCCCCC)CCCCCCCC)CCOCCN(C)C and give its measured EE (%).
Given back: 91.84

Asked: // EE (%) lookup, key: CCCCC/C=C\C/C=C\CCCCCCCCN(CCO)CCCCCCCC(=O)OCCCCCCCCC
Given back: 90.9

Asked: Consider the compound CCCCCCCCCOC(=O)CCCCCCCN(CCCCCCCC(=O)OC(CCCCCCCC)CCCCCCCC)CCCN/C(=N/S(C)(=O)=O)N(C)C and give its measured EE (%).
Given back: 97.81

Asked: # query: EE (%) of entry CCCCCCCCCOC(=O)CCCCCCCN(CCCCCCCC(=O)OC(CCCCCCCC)CCCCCCCC)C1CCCCC1O (centres unmarked)
Given back: 96.00

Asked: Could you tell me which EE (%) is on file for CCCCCCCCC(CCCCCCCC)OC(=O)CCCCCCCN(CCO)CCCCCC(=O)OC1CCC(CCCCC)CC1 (centres unmarked) ?
Given back: 97.7

Asked: Fill in: EE (%) of CCCCCCCCC(CC)OC(=O)CCCCCN(CCO)CCCCCCCC(=O)OC(CCCCCCCC)CCCCCCCC (centres unmarked) is ___
Given back: 92.3
